target or test system: IGF-1R (Homo sapiens, UniProt P08069)
Sequence (P08069 31-1367): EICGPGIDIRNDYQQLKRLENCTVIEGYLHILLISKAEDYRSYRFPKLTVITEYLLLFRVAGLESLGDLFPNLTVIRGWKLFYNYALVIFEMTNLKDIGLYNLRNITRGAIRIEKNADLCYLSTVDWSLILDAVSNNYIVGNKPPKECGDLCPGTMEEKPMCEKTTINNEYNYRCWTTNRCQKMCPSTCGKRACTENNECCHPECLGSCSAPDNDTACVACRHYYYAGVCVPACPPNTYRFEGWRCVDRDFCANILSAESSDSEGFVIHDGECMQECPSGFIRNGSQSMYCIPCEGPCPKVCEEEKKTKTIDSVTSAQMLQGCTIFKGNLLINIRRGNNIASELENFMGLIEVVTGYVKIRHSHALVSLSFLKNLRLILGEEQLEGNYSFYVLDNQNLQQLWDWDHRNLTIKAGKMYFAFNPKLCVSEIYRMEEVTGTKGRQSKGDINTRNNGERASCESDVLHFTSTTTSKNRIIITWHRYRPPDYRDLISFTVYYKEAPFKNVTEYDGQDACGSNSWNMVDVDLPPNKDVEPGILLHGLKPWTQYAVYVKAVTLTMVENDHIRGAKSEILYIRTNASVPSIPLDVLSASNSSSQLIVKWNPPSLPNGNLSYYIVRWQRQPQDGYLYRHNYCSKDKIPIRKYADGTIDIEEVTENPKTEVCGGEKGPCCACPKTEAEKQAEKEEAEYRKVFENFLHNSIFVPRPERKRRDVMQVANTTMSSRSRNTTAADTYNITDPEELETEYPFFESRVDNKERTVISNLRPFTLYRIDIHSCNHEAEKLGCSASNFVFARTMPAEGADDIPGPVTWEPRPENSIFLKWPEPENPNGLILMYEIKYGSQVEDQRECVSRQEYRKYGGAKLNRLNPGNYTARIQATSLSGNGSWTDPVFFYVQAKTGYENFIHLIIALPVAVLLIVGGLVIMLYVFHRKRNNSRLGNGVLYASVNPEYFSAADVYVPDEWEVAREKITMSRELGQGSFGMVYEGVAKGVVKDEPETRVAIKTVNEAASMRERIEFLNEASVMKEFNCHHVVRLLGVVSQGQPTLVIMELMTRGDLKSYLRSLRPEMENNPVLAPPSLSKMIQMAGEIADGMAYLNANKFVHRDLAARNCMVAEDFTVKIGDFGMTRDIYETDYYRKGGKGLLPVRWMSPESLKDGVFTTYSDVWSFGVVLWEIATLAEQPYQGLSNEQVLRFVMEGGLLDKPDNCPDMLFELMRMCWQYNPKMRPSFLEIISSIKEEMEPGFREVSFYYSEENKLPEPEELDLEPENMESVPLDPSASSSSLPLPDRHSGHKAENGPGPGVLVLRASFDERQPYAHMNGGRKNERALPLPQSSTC
measurement description: Cellular IGF-1R assay: capture ELISA (MSD) of receptor phosphorylation in Hek293 cells
test parameters: Hek293-IGF1R cells, 1 h pre-incubation, 10 min IGF stimulation, pIGF1R capture ELISA
Experimental: In this assay the activity of the compounds of the invention against Insulin-like growth factor I (IGF-I) induced autophosphorylation of the IGF-IR was determined. The assay was conducted as follows: Compound-mediated inhibition of IGF1R and INSR phosphorylation in Hek293 cells transduced with the corresponding receptors was assessed in a capture ELISA format using the MSD (Meso Scale Discovery) platform. […] IC50 values [nM] were determined using 4-parametric curve-fitting (XLfit software, V4.3.2). […]
Give pIC50 for every item shown.
Answers are plain numbers, as −log10 of the molar value.

Here's what some known entries look like.
Nc1ncnc2c1c(-c1cccc(OCC3CCCCO3)c1)cn2[C@H]1C[C@H](CN2CC(O)C2)C1 (relative stereo) [Example 36] | 6.43
NC[C@]1(O)C[C@H](n2cc(-c3cccc(OCC45CCC(CC4)O5)c3)c3c(N)ncnc32)C1 [Example 201] | 6.32
Nc1ncnc2c1c(-c1cccc(OCC34CCC(CC3)O4)c1)cn2C1CC(O)(CN2CCCC2CO)C1 (single isomer, unassigned) [Example 202] | 6.41
CC1(C)CCC(COc2cccc(-c3cn([C@H]4C[C@@H](CN5CC(O)C5)C4)c4ncnc(N)c34)c2)O1 (relative stereo) [Example 41] | 7.39

Give me pIC50 for each of these compounds, listed below.
1. Nc1ncnc2c1c(-c1cccc(OCC34CCC(CC3)O4)c1)cn2[C@H]1CC[C@@H](Cn2ccnc2)CC1 [Example 148]
2. Nc1ncnc2c1c(-c1cccc(OCC34CCC(CC3)O4)c1)cn2[C@H]1CC[C@@H](CO)CC1 [Example 110]
3. Nc1ncnc2c1c(-c1cccc(OCC34CCC(CC3)O4)c1)cn2C1CC(CN2CC3CC2C[S+]3[O-])C1 (single isomer, unassigned) [Example 229]

6.61
6.23
6.20

Source: patent US20120165310A1
